All values here come from ChEMBL document CHEMBL3988442.

- targetOrTestSystem: Ubiquitin-activating enzyme e1, putative (Leishmania donovani (strain BPK282A1)) (UniProt E9BSI1)
- Sequence (E9BSI1 as listed by the source): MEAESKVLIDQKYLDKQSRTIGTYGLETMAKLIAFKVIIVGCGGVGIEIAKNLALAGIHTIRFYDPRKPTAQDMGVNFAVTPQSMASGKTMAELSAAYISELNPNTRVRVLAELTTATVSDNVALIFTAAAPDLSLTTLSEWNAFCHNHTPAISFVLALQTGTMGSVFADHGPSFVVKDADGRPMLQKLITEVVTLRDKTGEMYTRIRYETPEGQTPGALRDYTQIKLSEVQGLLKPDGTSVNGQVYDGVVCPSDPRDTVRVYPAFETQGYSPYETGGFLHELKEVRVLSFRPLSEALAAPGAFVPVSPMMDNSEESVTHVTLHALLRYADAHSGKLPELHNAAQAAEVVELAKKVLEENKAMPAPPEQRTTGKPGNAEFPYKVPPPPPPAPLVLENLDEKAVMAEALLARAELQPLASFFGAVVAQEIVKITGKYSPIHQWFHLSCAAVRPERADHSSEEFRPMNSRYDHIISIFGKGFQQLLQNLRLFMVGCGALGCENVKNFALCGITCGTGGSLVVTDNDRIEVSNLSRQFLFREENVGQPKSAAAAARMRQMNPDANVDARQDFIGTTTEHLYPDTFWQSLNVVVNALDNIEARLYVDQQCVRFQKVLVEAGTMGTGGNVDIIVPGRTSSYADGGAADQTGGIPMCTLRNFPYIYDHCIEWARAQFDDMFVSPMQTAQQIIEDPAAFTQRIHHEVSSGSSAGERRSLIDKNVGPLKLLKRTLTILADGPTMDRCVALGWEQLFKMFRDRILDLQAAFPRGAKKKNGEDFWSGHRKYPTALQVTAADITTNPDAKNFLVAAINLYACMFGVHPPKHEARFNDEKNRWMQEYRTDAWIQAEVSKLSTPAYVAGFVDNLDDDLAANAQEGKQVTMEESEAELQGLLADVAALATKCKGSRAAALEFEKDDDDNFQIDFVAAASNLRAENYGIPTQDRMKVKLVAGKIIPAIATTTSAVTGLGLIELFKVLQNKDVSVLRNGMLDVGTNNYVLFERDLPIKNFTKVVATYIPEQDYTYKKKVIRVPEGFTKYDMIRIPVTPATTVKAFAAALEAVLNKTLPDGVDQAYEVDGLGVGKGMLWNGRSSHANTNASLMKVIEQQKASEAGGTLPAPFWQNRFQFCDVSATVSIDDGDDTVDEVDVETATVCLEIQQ
- measurementDescription: Leishmania donovani Ubiquitin Activating Enzyme (LdE1)
- Assay type: functional
- Design: scale not given: direction of the effect not stated beside the values
- conditionContext: 30 µM
Potency and affinity values are given separately.
Reported Percent Effect by item:
measure: Percent Effect (%)

* CN(CCOc1cccc(CNC(=O)C2CC2)c1)C1CCOCC1 | 0
* Cc1noc([C@@H]2C[C@H]3OCC[C@H]3N(S(=O)(=O)c3cccnc3)C2)n1 | 11
* O=C(c1cccc2c1OCO2)N1CCCC1Cn1cccn1 (stereo unspecified) | -2.6
* CC1=Nc2c(c(=O)[nH]n2C2CCCC2)C(c2cccc(O)c2)S1 (stereo unspecified) | -1.33
* O=C(c1ccsc1)N1CC[C@H]2C[C@@H](c3nnc(C4CC4)o3)O[C@@H]2C1 | 7.79
* NC(=O)c1ccc(NC(=O)CCN2CCCC(N3CCCC3)C2)cc1 (stereo unspecified) | 13.5

* * *

- targetOrTestSystem: Tyrosyl-tRNA synthetase, putative (Trypanosoma cruzi (strain CL Brener))
- Sequence (whole entry): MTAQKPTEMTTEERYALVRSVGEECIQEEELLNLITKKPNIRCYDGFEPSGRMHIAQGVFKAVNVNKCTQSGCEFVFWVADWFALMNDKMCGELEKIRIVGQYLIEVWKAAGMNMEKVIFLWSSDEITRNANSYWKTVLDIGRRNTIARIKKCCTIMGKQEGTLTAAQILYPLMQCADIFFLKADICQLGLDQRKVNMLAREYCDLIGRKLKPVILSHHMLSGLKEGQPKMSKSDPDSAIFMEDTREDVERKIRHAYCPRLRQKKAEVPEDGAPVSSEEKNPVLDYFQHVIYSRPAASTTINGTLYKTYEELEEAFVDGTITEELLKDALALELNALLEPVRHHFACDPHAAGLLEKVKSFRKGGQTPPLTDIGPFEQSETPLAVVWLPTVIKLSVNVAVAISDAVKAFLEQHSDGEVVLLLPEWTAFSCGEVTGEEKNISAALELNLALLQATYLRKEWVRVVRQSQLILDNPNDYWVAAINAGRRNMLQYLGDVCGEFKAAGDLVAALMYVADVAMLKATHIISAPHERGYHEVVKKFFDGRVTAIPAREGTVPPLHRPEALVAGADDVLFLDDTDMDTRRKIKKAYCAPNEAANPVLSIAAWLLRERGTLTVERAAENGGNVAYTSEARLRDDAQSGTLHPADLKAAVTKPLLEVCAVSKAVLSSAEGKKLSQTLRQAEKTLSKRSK
- measurementDescription: Trypanosoma cruzi tyrosyl tRNA synthetase (TcYRS) SOP
- Format: functional
- Design: scale not given: direction of the effect not stated beside the values
- conditionContext: 30 µM
Reported Percent Effect by item:
measure: Percent Effect (%)

• CCc1nc(CN(C)C2CCN(Cc3cnc(C)cn3)C2)no1 (centres undefined) = 21.5
• COc1cc(C)nc(N2CCN(C(=O)CCc3nccs3)CC2)n1 = 2.44
• CN(Cc1nc(-c2ccco2)no1)C1CCCN(c2cccnn2)C1 (centres undefined) = 21.5
• CC(C)n1cc(CN2CCCN(C(=O)c3ccc[nH]3)CC2)cn1 = 13.4
• CNS(=O)(=O)c1ccc(C(=O)NC2CCOc3ccccc32)o1 (centres undefined) = 18.2
• OC(CN1CCN(Cc2nnc(C3CC3)o2)CC1)c1ccccc1 (centres undefined) = 13.9
• O=C(CN1CCC(N2CCNC2=O)CC1)NCC(F)(F)F = 13.9
• CN(Cc1cccc(F)c1)C1CCN(CCc2ccccn2)CC1 = 13.4
• CN(Cc1ncc(-c2ccccc2)o1)CC1CCCN1c1cccnn1 (centres undefined) = 9.41
• c1ccc(OC[C@]23COC[C@H]2CN(c2ncccn2)C3)nc1 = 17.5
• CCn1c(Nc2ccccc2OC)nc2c(C)nn(C)c2c1=O = 10.3
• CN(CCN1CCCCC1)C(=O)c1cc(CN2CCOCC2)on1 = 20
• Cc1cnn(C2CCCN(C(=O)c3ccnc(N(C)C)c3)C2)c1 (centres undefined) = 5.06
• O=C(c1n[nH]c(=O)c2ccccc12)N1CCCCC1c1ccn[nH]1 (centres undefined) = 6.49
• CN(Cc1ccsc1)C(=O)CS(=O)(=O)Cc1ccc(Cl)c(Cl)c1 = 0
• NC(=O)COc1cccc(C(=O)Nc2cnc3n2CCCC3)c1 = 15.4
• CC(C)OCCN1CCC(N2CCN(C)C2=O)CC1 = 14.6
• O=C(c1ccc2c(c1)CCCC2)N1CCOCC1c1ncon1 (centres undefined) = 13.6
• O=C([C@H]1CCCO1)N1CCCC2(CCN(Cc3ccncc3)C2=O)C1 (some centres undefined) = 6.41
• O=C(c1ccsc1)N1CC[C@H]2C[C@@H](c3nnc(C4CC4)o3)O[C@@H]2C1 = 11.5
• COc1c(CNC2CCN(c3ncccn3)CC2)c(C(C)C)nn1C = 16.1
• Cc1nc(N2CCN(C(=O)c3ccsc3)CC2)c2cnn(C)c2n1 = 13.6
• COc1cccc(COCC(=O)N2CCCC(n3ccnc3)C2)c1 (centres undefined) = 11.1
• CN(CCNC(=O)NCc1ccncc1)C1CCCC1 = -1.24

* * *

- targetOrTestSystem: Sialic acid-binding Ig-like lectin 9 (Homo sapiens)
- measurementDescription: Hs-Siglec9 ALPHAscreen SOP 20170721
- Design: scale not given: direction of the effect not stated beside the values
- conditionContext: 10 µM
measure: Percent Effect (%)

* CCc1nc(CN2CCCN(c3nc4ccccc4o3)CC2)no1 | 2.65
* Cn1cccc1C(=O)N1CCC2(CC1)CN(c1cncnc1)C(=O)CO2 | -0.563
* O=C(c1cccnc1)N1CCCC2(CCN(c3ccsc3)C2=O)C1 (centres undefined) | -9.57
* CC(C)c1noc(CN(Cc2ccccc2F)C2CC2)n1 | 8.23
* CCC(C(=O)NCc1ccncc1)N(c1cccc(C)c1)S(C)(=O)=O (centres undefined) | 9.85
* Cc1noc2ncc(C(=O)NCC3CCN(C(C)C)C3)cc12 (centres undefined) | 2.67
* CNc1nc2c(c(C(=O)N3CCCC3)n1)CN(Cc1nccn1C)CC2 | 7.16
* COCCN1CCC(N(Cc2noc(C3CC3)n2)C(C)=O)C1 (centres undefined) | -6.65
* Cc1nc2cc(=O)[nH]n2c(C)c1CC(=O)Nc1ccc2ccccc2n1 | 6.53
* Cc1nc(NCc2ccc(C)o2)cc(C(=O)N2CCOCC2)n1 | 14.3
* Cc1cnn(CC2CN(Cc3nnc(C4CC4)o3)CCO2)c1 (centres undefined) | 7.35
* CC(=O)NC(C)CC(=O)NCc1cccnc1Oc1ccccc1C (centres undefined) | -2.33
* Cn1cc(CCNC(=O)NC2CCS(=O)(=O)C2)cn1 (centres undefined) | -1.6
* CCc1nc(C2CCCN(C(=O)c3cccc4c3ccn4C)C2)no1 (centres undefined) | 3.25
* COc1ccc(CCNC(=O)NC2CCCC2)cc1OC | 3.69
* N#Cc1cccc(S(=O)(=O)NC(=O)COC2CCCC2)c1 | -1.76
* O=C(NCCc1nnc2n1CCC2)NC1(c2cccc(F)c2)CC1 | -2.57
* Cc1ccc(C#N)c(N2CCC(c3nccn3CCN(C)C)CC2)n1 | 4.68
* CSC(C)(C)CNC(=O)NCCC1CCN(C)CC1 | -5.29
* CN(CC(=O)N1CCCC1c1cnn(C)c1)c1ccc(Cl)cn1 (centres undefined) | -3.87
* CNCC(=O)N1CCCC(c2nccnc2Oc2cccc(F)c2)C1 (centres undefined) | -1.6
* CC(NC(=O)NCC1(c2ccc(F)cc2)CCC1)c1nncn1C (centres undefined) | 8.69
* CCCNC(=O)C(C)NC(=O)CCc1ccccc1Br (centres undefined) | -5.62
* CC(C)CN1CCC(C(=O)Nc2cc(C(F)(F)F)c[nH]c2=O)CC1 | 14.9

* * *

- targetOrTestSystem: Chromo domain-containing protein 1 (Saccharomyces cerevisiae (strain ATCC 204508 / S288c) (Baker's yeast))
- measurementDescription: ScCHD-1 Enzyme Inhibition Assay; also: in the data most compounds retested in dose-response had high values
- Format: functional
- Parameters: scale not given: direction of the effect not stated beside the values
- conditionContext: 30 µM
Reported Percent Effect by item:
measure: Percent Effect (%)

- CCc1noc(C)c1C(=O)N(C)Cc1ncc(C)c(OC)c1C: -14.6
- Cc1cc(C)nc(CCNC(=O)C(c2ccc(F)cc2)N(C)C)n1 (configuration not stated): -6.29
- COCCN1C[C@@H](C)[C@@]2(COCCN(C(=O)Cc3ccccc3)C2)C1: -7.47
- CC(C)CC(=O)N1CC[C@@H]2[C@H](CC1)N(S(C)(=O)=O)CCS2(=O)=O: -6.08
- CCN(CC)CCNC(=O)c1nn(CC)cc1Cl: -9.1
- O=C(CN1CCOC(Cn2cccn2)C1)NCCc1ccc(F)cc1 (configuration not stated): 13.8
- CC(=O)N1CCCC(Cc2cncc(Br)c2)CC1 (configuration not stated): -26.1
- O=C(Nc1ccc(F)c(Br)c1)N1CCCC1: -3.18
- CSC(C)C(=O)NCCCc1cc(N)n(-c2ccccc2)n1 (configuration not stated): -2.72
- Cc1nnc(CN2CCN(CC(O)c3cccc(F)c3)CC2)n1C (configuration not stated): -20.7
- O=C(NCC1CC1)Nc1cccc(N2CCN(CC3CC3)CC2)c1: -13.1
- CC(NC(=O)NCC1(N2CCCCC2)CCCCC1)c1nncn1C (configuration not stated): -6
